Tgt: OXA-23 (Acinetobacter baumannii, UniProt Q9L4P2)
Construct: hexahistidine (pOPINF, 3C-cleavable) (N, cleaved yes); made in house; host or cells: E. coli BL21(DE3)
Sequence (Q9L4P2 18-273): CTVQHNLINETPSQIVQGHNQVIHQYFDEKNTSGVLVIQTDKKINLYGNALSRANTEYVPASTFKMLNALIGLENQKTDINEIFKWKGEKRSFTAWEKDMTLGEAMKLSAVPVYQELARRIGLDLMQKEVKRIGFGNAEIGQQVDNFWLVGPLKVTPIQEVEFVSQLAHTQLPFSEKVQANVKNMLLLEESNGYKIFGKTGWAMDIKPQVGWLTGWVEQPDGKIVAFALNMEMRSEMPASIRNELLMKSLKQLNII
Measurement notes: FC5 fluorogenic β-lactamase inhibition assay, OXA-23
Format: biochemical
Measurement conditions: read-out: IC50, nM (mean ± SD) for OXA-23; preincubation 360 min; FC5 substrate
Recorded metric: IC50

Prompt: Given the compound "CC1(C)[C@H](C(=O)O)N2C(=O)C[C@H]2S1(=O)=O" , what is its reported IC50?
Completion: > 200000 nM

====

Tgt: CTX-M-15 (Escherichia coli, UniProt Q9EXV5)
Construct: hexahistidine (pOPINF, 3C-cleavable) (N, cleaved yes); made in house; host or cells: E. coli BL21(DE3)
Sequence (Q9EXV5 entry or part of it): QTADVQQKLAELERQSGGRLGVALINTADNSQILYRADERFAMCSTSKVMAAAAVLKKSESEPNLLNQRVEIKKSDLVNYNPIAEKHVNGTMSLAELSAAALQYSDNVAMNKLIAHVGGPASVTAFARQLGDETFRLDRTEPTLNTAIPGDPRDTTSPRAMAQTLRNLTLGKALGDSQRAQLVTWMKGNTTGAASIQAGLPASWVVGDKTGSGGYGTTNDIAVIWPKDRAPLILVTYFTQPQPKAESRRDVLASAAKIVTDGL
Measurement notes: FC5 fluorogenic β-lactamase inhibition assay, CTX-M-15
Assay type: biochemical
Measurement conditions: IC50, nM (mean ± SD) for CTX-M-15, preincubation 10 min; FC5 substrate
Recorded metric: IC50 (nM)
One number for each entry, in nM.

Prompt: Can you look up the measured IC50 of "CC1(C)[C@H](C(=O)O)N2C(=O)C[C@H]2S1(=O)=O" for me?
Completion: 29
